Parameter cytotoxicity at 15 h, 1 µM: see the listing below.
- PROTOCOL_DESCRIPTION: in vitro
- CONDITIONS: dog, mdck
Answer with a number only, understood to be in %.

# annotated cases, reported cytotoxicity at 15 h, 1 µM shown
[
  {
    "COMPOUND": "O=C1C=CC(=O)c2cc3ccccc3cc21",
    "MEASURED_PROPERTY": "cytotoxicity at 15 h, 1 µM",
    "REPORTED_RESULT": -4.3
  },
  {
    "COMPOUND": "Oc1ccc(O)c2c1C1CCC2C1 [Compound 111, 3',6'-dihydroxybenzonorbornane]",
    "MEASURED_PROPERTY": "cytotoxicity at 15 h, 1 µM",
    "REPORTED_RESULT": 1
  }
]

Value of measured cytotoxicity at 15 h, 1 µM for the entry O=C1C=C(O)C(=O)c2ccccc21 [Compound 120, 2-hydroxy-1,4-naphthoquinone] : 0.5
